Published IC50 for NAMPT (Homo sapiens, UniProt P43490), assembled from different documents, is shown next.
// NB: equality with 0.8 nM counts as n; only IC50 strictly below is y

[
  {
    "compound": "CC(C)(O)Cn1cc(-c2ncc(C(=O)NCc3ccn4ccnc4c3)s2)cn1",
    "label_value": "y"
  },
  {
    "compound": "CC1(Cn2cc(-c3ccc(C(=O)NCc4ccc5ncnn5c4)o3)cn2)CCOCC1",
    "label_value": "n"
  },
  {
    "compound": "Cc1ccsc1C(=O)N1CCC(Oc2ccc(NC(=O)C3CN(c4cccnc4)C3)cc2)CC1",
    "label_value": "y"
  },
  {
    "compound": "O=C(/C=C/c1cccnc1)NCCCCCCN1c2ccccc2CCc2ccccc21",
    "label_value": "n"
  },
  {
    "compound": "O=C(Nc1ccc(OC2CCN(C(=O)CC3CCOCC3)CC2)cc1)C1CN(c2cnccc2C(F)(F)F)C1",
    "label_value": "n"
  },
  {
    "compound": "CCCNC(=O)c1ccc(NC(=O)Nc2ccc3nccn3c2)cc1",
    "label_value": "y"
  },
  {
    "compound": "CC1(C(=O)N2CCC(Oc3ccc(NC(=O)C4CN(c5cccnc5)C4)cc3)CC2)CCCCC1",
    "label_value": "y"
  },
  {
    "compound": "Cc1ccc(C(=O)N2CCC(Oc3ccc(NC(=O)C4CN(c5ccnnc5)C4)cc3)CC2)s1",
    "label_value": "n"
  },
  {
    "compound": "COCCNC(=O)N(C[C@H]1CCCO1)c1ncc(C(=O)NCc2ccc3nccn3c2)s1",
    "label_value": "n"
  },
  {
    "compound": "O=C(NCc1ccn2ccnc2c1)Nc1ccc(C2CCN(C(=O)Cc3ccccc3)CC2)cc1",
    "label_value": "y"
  },
  {
    "compound": "O=C(/C=C/c1cccnc1)NCCCCC1CCN(C(=O)c2ccc(O)cc2)CC1",
    "label_value": "n"
  },
  {
    "compound": "CCS(=O)(=O)N1CCC(c2ccc(C(=O)NCc3ccn4ccnc4c3)cc2)C1 (centres unmarked)",
    "label_value": "y"
  },
  {
    "compound": "O=C(Nc1ccc(OC2CCN(C(=O)Cc3cccc(F)c3)CC2)cc1)C1CN(c2ccnnc2)C1",
    "label_value": "n"
  },
  {
    "compound": "CN1CCCC(NC(=O)NCc2ccc3nc(-c4ccc(F)cc4)c(-c4ccc(F)cc4)nc3c2)C1 (centres unmarked)",
    "label_value": "n"
  },
  {
    "compound": "O=C(Nc1ccc(OC2CCN(C(=O)C3CCCO3)CC2)cc1)C1CN(c2ccnnc2)C1 (centres unmarked)",
    "label_value": "n"
  }
]
